The following compounds are shown together with reported inhibition at 100 µM values.
# tested on: SARS-CoV-2 Mac1 (Severe acute respiratory syndrome coronavirus 2)
# protocol notes: biochemical
# measurement conditions: read-out: %inhibition
Structures can show the parent of a compound that is named as a salt.
Quick reminder: number only, in %, skip the unit.

compound	tested on	observation type	measured value
Cc1c(C(=O)Nc2ccc(N3C[C@@H](C)O[C@@H](C)C3)nc2)cccc1-c1ccc(OC(F)(F)F)cc1 [Sonidegib (Erismodegib, NVP-LDE225)]	SARS-CoV-2 Mac1 (Severe acute respiratory syndrome coronavirus 2)	inhibition at 100 µM	0

GET /value?item= `CCn1cc(C(=O)O)c(=O)c2ccc(C)nc21` &field=inhibition at 100 µM returns 0

Just so you know, measured inhibition at 100 µM for CO[C@@H]1[C@@H](OC(N)=O)[C@@H](O)[C@H](Oc2ccc3c(O)c(NC(=O)c4ccc(O)c(CC=C(C)C)c4)c(=O)oc3c2C)OC1(C)C [Novobiocin Sodium] came out at 0

Looking up CO/N=C(\C(=O)N[C@@H]1C(=O)N2C(C(=O)O)=C(CSc3nnnn3C)CS[C@H]12)c1csc(N)n1 [Cefmenoxime hydrochloride] , I see its inhibition at 100 µM listed as 0

GET /value?item= CCCOC(C(=O)OC1CCN(C)CC1)(c1ccccc1)c1ccccc1 [Propiverine hydrochloride] &field=inhibition at 100 µM returns 21.7

// recorded inhibition at 100 µM for COC(=O)C1=C(C#N)NC(C)=C(C(=O)OC(C)C)C1c1cccc([N+](=O)[O-])c1 (stereo not drawn) : 0

Reported inhibition at 100 µM for `Cc1ccc(-n2nc(C(C)(C)C)cc2NC(=O)NCc2cc(F)ccc2Oc2ccc3c(cnn3CCO)c2)cc1` was 0.769

The compound listed as CC(C)Cc1ccc(C(C)C(=O)O)cc1 (stereo not drawn) has a reported inhibition at 100 µM of 0

Entry `Cc1ccc(NC(=O)C2(c3ccc4c(c3)OC(F)(F)O4)CC2)nc1-c1cccc(C(=O)O)c1` , inhibition at 100 µM reported as 0

====

Measured inhibition at 100 µM, listed per entry for reference.
# tested on: UniProt:P0DTD1
# protocol notes: biochemical
# measurement conditions: read-out: %inhibition
Structures can show the parent of a compound that is named as a salt.
Lab book: enter the figure in %, no units written.

Worked cases, answers included:
compound	tested on	measurement units	measured value
O=C(C1CCCCC1)N1CC(=O)N2CCc3ccccc3C2C1 (stereo not drawn)	UniProt:P0DTD1	%	0
CO[C@H]1/C=C/O[C@@]2(C)Oc3c(C)c(O)c4c(O)c(c(/C=N/N5CCN(C)CC5)c(O)c4c3C2=O)NC(=O)/C(C)=C\C=C\[C@H](C)[C@H](O)[C@@H](C)[C@@H](O)[C@@H](C)[C@H](OC(C)=O)[C@@H]1C	UniProt:P0DTD1	%	31.3
COc1cccc(-c2c(C)n(Cc3c(F)cccc3C(F)(F)F)c(=O)n(C[C@H](NCCCC(=O)O)c3ccccc3)c2=O)c1F [Elagolix Sodium]	UniProt:P0DTD1	%	0
CCOC(=O)[C@@H](N)Cc1ccc(-c2cc(O[C@H](c3ccc(Cl)cc3-n3ccc(C)n3)C(F)(F)F)nc(N)n2)cc1 [Telotristat Etiprate (LX 1606 Hippurate)]	UniProt:P0DTD1	%	0
CC(C)OC(=O)[C@H](C)N[P@](=O)(CO[C@H](C)Cn1cnc2c(N)ncnc21)Oc1ccccc1 [Tenofovir Alafenamide (GS-7340)]	UniProt:P0DTD1	%	10.7

Short answer for C[N+]1(C)CCCC(OC(=O)C(O)(c2ccccc2)c2ccccc2)C1 (stereo not drawn) [Mepenzolate Bromide] : inhibition at 100 µM was 0

Per the records, this compound ( CC(=O)Oc1c(C)c(C)c2c(c1C)CCC(C)(CCC[C@H](C)CCC[C@H](C)CCCC(C)C)O2 (stereo partly drawn) [Vitamin E Acetate] ) has inhibition at 100 µM equal to 0

Recorded inhibition at 100 µM (compound c1ccc2c(CC3=NCCN3)cccc2c1 [Naphazoline HCl] ): 8.42

Summary for this compound, `C[C@H](Cn1cnc2c(N)ncnc21)OCP(=O)(O)O` : inhibition at 100 µM is 0

For reference, reported inhibition at 100 µM for Cc1nc2n(c(=O)c1CCN1CCC(c3noc4cc(F)ccc34)CC1)CCCC2O (stereo not drawn) stands at 1.55

The reported value for Nc1ncnc2c1ncn2[C@@H]1O[C@H](CO)[C@@H](O)[C@@H]1O [Vidarabine monohydrate] in terms of inhibition at 100 µM is 9.49

Record `Cc1c(C(=O)NN2CCCCC2)nn(-c2ccc(Cl)cc2Cl)c1-c1ccc(Cl)cc1` , field inhibition at 100 µM: 3.4

Query O=C(NCC(O)CO)c1c(I)c(C(=O)NCC(O)CO)c(I)c(N(CCO)C(=O)CO)c1I (stereo not drawn) yields inhibition at 100 µM of 25.5

Summary for this compound, `C=C(c1ccc(C(=O)O)cc1)c1cc2c(cc1C)C(C)(C)CCC2(C)C` : inhibition at 100 µM is 0

Summary for this compound, `COc1c2occc2cc2ccc(=O)oc12` : inhibition at 100 µM is 14.7
